System: HepG2
experimentDescription: cytotoxicity call (relative viability < 0.9)
conditionSet: 10 µM
Screen size: about 39,000 compounds; about 3,300 (8.5%) were called active. This is one part of a sample in which actives are shown more often than they occur.
Outcome codes: active, inactive

- structureNotation: "CCN(CC)CCN(Cc1ccc(-c2ccc(C(F)(F)F)cc2)cc1)C(=O)Cn1c(SCc2ccc(F)cc2)nc(=O)c2c1CCC2"
  classAssignment: "active"
- structureNotation: "COc1ccc(NC(=O)Nc2cccc3c2O[C@@H](CN(C)Cc2ccc(C(F)(F)F)cc2)[C@H](C)CN([C@@H](C)CO)C3=O)cc1"
  classAssignment: "inactive"
- structureNotation: "COc1ccc(S(=O)(=O)N(C)C[C@H]2Oc3c(NS(=O)(=O)c4ccc(C)cc4)cccc3C(=O)N([C@H](C)CO)C[C@H]2C)cc1"
  classAssignment: "inactive"
- structureNotation: "Cc1noc(C)c1S(=O)(=O)Nc1ccc2c(c1)CC(=O)N([C@@H](C)CO)C[C@@H](C)[C@@H](CN(C)C(=O)Nc1ccc3c(c1)OCO3)O2"
  classAssignment: "inactive"
- structureNotation: "C=CCOC(=O)[C@H]1[C@@H]2C(=O)O[C@@H](c3ccccc3)[C@@H](c3ccccc3)N2[C@@H](c2ccc(OCCOC(=O)[C@H]3C[C@H]4C(=O)N5CCC[C@H]5C(=O)N4[C@H]3c3ccc(O)cc3)cc2)[C@]12C(=O)Nc1ccc(I)cc12"
  classAssignment: "inactive"
- structureNotation: "COc1ccc(CN(C)C[C@@H]2Oc3c(NC(=O)Nc4ccc(C(F)(F)F)cc4)cccc3C(=O)N([C@@H](C)CO)C[C@H]2C)cc1"
  classAssignment: "active"
- structureNotation: "C[C@H](CO)N1C[C@H](C)[C@H](CN(C)Cc2ccc(Cl)c(Cl)c2)OCCCC[C@H](C)Oc2ccc(NS(=O)(=O)c3ccc(F)cc3)cc2C1=O"
  classAssignment: "inactive"
- structureNotation: "COc1ccc(CN(C)C[C@H]2Oc3c(NC(=O)Nc4ccc(C(F)(F)F)cc4)cccc3C(=O)N([C@@H](C)CO)C[C@H]2C)cc1"
  classAssignment: "active"
- structureNotation: "COc1ccc(CN(C)C[C@H]2Oc3c(NC(=O)Nc4ccc(C(F)(F)F)cc4)cccc3C(=O)N([C@H](C)CO)C[C@H]2C)cc1"
  classAssignment: "inactive"
- structureNotation: "COCC(=O)N1C[C@H](C)[C@@H](OC)CN(C)C(=O)c2ccc(NC(=O)Nc3ccccc3)cc2OC[C@H]1C"
  classAssignment: "inactive"
- structureNotation: "COc1ccc(CN(C)C[C@H]2Oc3c(NC(=O)Nc4ccc(C(F)(F)F)cc4)cccc3C(=O)N([C@H](C)CO)C[C@@H]2C)cc1"
  classAssignment: "inactive"
- structureNotation: "COc1ccc(NC(=O)Nc2cccc3c2O[C@@H](CN(C)Cc2ccc(C(F)(F)F)cc2)[C@@H](C)CN([C@H](C)CO)C3=O)cc1"
  classAssignment: "inactive"
- structureNotation: "C[C@@H]1CN([C@@H](C)CO)C(=O)Cc2cc(NC(=O)C3CC3)ccc2O[C@@H]1CN(C)S(=O)(=O)c1cccs1"
  classAssignment: "inactive"
